Data origin: PubChem BioAssay (NCI)

system: SF-295 CNS; assay: NCI tumour cell line growth inhibition, 48 h; in the data active = GI50 below about 0.43 µM; inactive = the rest
Outcomes: 1 for active, 0 for inactive

molecule: O=C1c2ccccc2C(=O)c2c1oc1c2c(=O)[nH]c2ccc(Cl)cc21
label class: 0
//
molecule: COc1ccc(CNCCCN2C(=O)c3ccc4c5c(ccc(c35)C2=O)C(=O)N(CCCNCc2ccc(OC)c(OC)c2OC)C4=O)c(OC)c1OC
label class: 1
//
molecule: C1C[OH+]CCNCC[OH+]CC[OH+]CCN1.N.[Cl-].[Pt+4]
label class: 0
//
molecule: CCc1cccc(NC(=O)Nc2ccc(Oc3ccc4nc(NC(=O)OC)[nH]c4c3)cc2)c1
label class: 0
//
molecule: COc1ccc2c(c1)C(=O)c1c-2c(N2CCN(C(=O)CCNCCNCCN)CC2)nc2ccccc12
label class: 0
//
molecule: COc1ccc(-c2cc(-c3ccc(OC)cc3)nc(NCCCNc3ccnc4cc(Cl)ccc34)n2)cc1
label class: 0
//
molecule: Cc1ccc(-c2nc(/C=N/Nc3cc(C)nc4ccc(Br)cc34)c(C)o2)cc1
label class: 0
//
molecule: O=[N+]([O-])c1ccc(N=Nc2c(Cl)cc(O)cc2Cl)cc1
label class: 0
//
molecule: CC1=C2[C@@H](CC1)[C@]1(C)O[C@@](C(C)C)(C[C@H]1OC(=O)CO)[C@H]2OC(=O)CCCc1ccccc1
label class: 0
//
molecule: CC(=O)Nc1ccc(OC(C)=O)cc1
label class: 1
//
molecule: CCN(CC)CCn1c(=O)c2cc(OC)c(OC)cc2c2ccc3cc4c(cc3c21)OCO4
label class: 1
//
molecule: Fc1ccc(-c2ncn(CCCN3CCOCC3)c2-c2ccncc2)cc1
label class: 0
//
molecule: O=C(c1ccc2ccccc2c1)c1c(C(F)(F)F)n([O-])c2cc(C(F)(F)F)ccc2[n+]1=O
label class: 0
//
molecule: CCN(CCO)CCCC(C)Nc1ccnc2cc(Cl)ccc12 (stereo unspecified)
label class: 0
//
molecule: O=C(CCCC(=O)N/N=C/c1cc(Cl)ccc1O)N/N=C\c1cc(Cl)ccc1O
label class: 0
//
molecule: C#Cc1cccc(NC(=O)c2cccc(NC(=O)CCl)c2)c1
label class: 0

====

test system: MCF7 breast; test: NCI tumour cell line growth inhibition, 48 h

compound: CCCCC(OC(=O)c1ccc(N)cc1)C(=O)Nc1nc(CC(=O)OCC)cs1 (configuration not stated)
target entity: MCF7 breast
TGI: > 100 µM
--
compound: Cc1cccc2c(NCCN(C)C)c3cccc(C(=O)NCCN(C)C)c3nc12
target entity: MCF7 breast
TGI: 2.85 µM
--
compound: CC1=C2[C@@H](CC1)[C@]1(C)O[C@@](C(C)C)(C[C@H]1OC(=O)CO)[C@H]2OC(=O)CCCc1ccccc1
target entity: MCF7 breast
TGI: 29.7 µM
--
compound: COc1ccc2nc3cc([N+](=O)[O-])ccc3c(Nc3ccc(S(=O)(=O)Nc4ncccn4)cc3)c2c1
target entity: MCF7 breast
TGI: > 100 µM
--
compound: CCCCc1n(Cc2ccc3ccccc3n2)cc[n+]1Cc1ccc2ccccc2n1
target entity: MCF7 breast
TGI: 11.2 µM
--
compound: CCN(CCO)CCCC(C)Nc1ccnc2cc(Cl)ccc12 (configuration not stated)
target entity: MCF7 breast
TGI: > 100 µM
--
compound: Cc1ccc2[nH]c(O)c(N=Nc3ccccc3[N+](=O)[O-])c2c1
target entity: MCF7 breast
TGI: > 100 µM
--
compound: O=C(Nc1ccccc1)c1cc(S(=O)(=O)N2CCNC2=O)c(S)cc1Cl
target entity: MCF7 breast
TGI: > 100 µM
--
compound: CCOC(=O)/C(=C\c1cn(C(C)=O)c2ccccc12)P(C)(=O)OCC (configuration not stated)
target entity: MCF7 breast
TGI: > 100 µM
--
compound: COc1ccccc1NC(=O)CC(=O)n1nc(C)c(N=Nc2ccccc2Cl)c1C
target entity: MCF7 breast
TGI: > 100 µM
--
compound: CCN(CC)CCn1c(=O)c2cc(OC)c(OC)cc2c2ccc3cc4c(cc3c21)OCO4
target entity: MCF7 breast
TGI: 24.8 µM
--
compound: O=c1oc2ccc(Cl)cc2c(=O)n1-c1ccc(F)cc1F
target entity: MCF7 breast
TGI: > 100 µM
